Attribution: ChEMBL document CHEMBL1201862

tested on: MDA-N; test: NCI tumour cell line growth inhibition, 48 h
Active and inactive are the calls of the source. No stated cut-off is given here; in the data, active = GI50 up to about 1.1 µM and inactive = higher.
measured_parameter: GI50

Input line: // GI50 lookup, key: [N-]=[N+]=NC1(c2ccccc2)C(=O)c2cccc3c4ccccc4n(c23)C1=O (configuration not stated)
Output line: 34.4 µM (inactive)

Input line: // GI50 lookup, key: O=[N+]([O-])/C(C(Cl)=C(Cl)Cl)=C(\NCc1ccccc1)Sc1ccccc1
Output line: 31.7 µM (inactive)

Input line: // GI50 lookup, key: N#C[C@H]1Nc2ccccc2[C@@H](O)C1O (some centres not stated)
Output line: > 100 µM (inactive)

Input line: // GI50 lookup, key: CC1(C)CC(O)CC(C)(C)N1O [TEMPOL HYDROXYLAMINE]
Output line: > 100 µM (inactive)

Input line: // GI50 lookup, key: O=C(Nc1ccn(C2CC(O)C(COC(c3ccccc3)(c3ccccc3)c3ccccc3)O2)c(=O)n1)c1ccccc1 (configuration not stated)
Output line: 1.96 µM (inactive)

Input line: // GI50 lookup, key: Cc1ncc2c(n1)CCC1=C2OS(=O)(=O)CC1N(C)C (configuration not stated)
Output line: > 100 µM (inactive)

Input line: // GI50 lookup, key: Nc1ncnc2nn(C3OC(CO)C(O)C3O)nc12 (configuration not stated)
Output line: 10.3 µM (inactive)

Input line: // GI50 lookup, key: CCOC(=O)Cc1c(C)c2ccc(OC(C)=O)c(OC(C)=O)c2oc1=O
Output line: > 100 µM (inactive)

Input line: // GI50 lookup, key: FC(F)(F)c1ccc2c(c1)nc(Cc1ccc(Cl)c(Cl)c1)n2CC1CCCN2CCCCC12 (configuration not stated)
Output line: 18.2 µM (inactive)

Input line: // GI50 lookup, key: O=[N+]([O-])c1ccc(Cl)cc1N/N=C/c1cccc2cccnc12
Output line: > 100 µM (inactive)

Input line: // GI50 lookup, key: C/C(=C\Cc1ccc(F)cc1)CCCCCC/C(C)=C/Cc1ccc(F)cc1
Output line: 18.5 µM (inactive)

Input line: // GI50 lookup, key: Cc1nc(C)c(C(=O)NNC(=O)Cc2ccccc2)cc1C(=O)NNC(=O)Cc1ccccc1
Output line: > 100 µM (inactive)

Input line: // GI50 lookup, key: CCOP(=O)(/C=C/n1ccc(=O)[nH]c1=O)OCC
Output line: > 100 µM (inactive)

Input line: // GI50 lookup, key: Cc1cccc2nc3c(=O)[nH]c(=O)nc-3n(C)c12
Output line: 62.1 µM (inactive)

Input line: // GI50 lookup, key: CCN(CC)c1ccc2cc(-c3nnc(-c4ccccc4)o3)c(=O)oc2c1
Output line: 48.5 µM (inactive)

Input line: // GI50 lookup, key: CC(C)(C)c1ccc(O)c(CN(Cc2cc(C(C)(C)C)ccc2O)C2CCCCC2)c1
Output line: 14.7 µM (inactive)

Input line: // GI50 lookup, key: CO[C@H]1c2cccc3cccc(c23)[C@@H]1n1[nH]c(=O)n(C(C)(C)C)c1=O
Output line: > 100 µM (inactive)

Input line: // GI50 lookup, key: CCOP(=O)(CC1OC(CO)C(O)C1O)OCC (configuration not stated)
Output line: > 100 µM (inactive)

Input line: // GI50 lookup, key: COC(=O)C(=CNC(N)=O)C(=O)OC
Output line: > 100 µM (inactive)

Input line: // GI50 lookup, key: N#CC(=S)Nc1ccc(F)cc1
Output line: 52.1 µM (inactive)

Input line: // GI50 lookup, key: O=C(NNC(=O)c1ccccc1O)c1ccc(O)cc1
Output line: > 100 µM (inactive)

Input line: // GI50 lookup, key: CCOC(=O)c1sc2c(c1OC(=O)c1ccc(OC)cc1)c(=O)n(-c1ccccc1)c(=S)n2-c1ccccc1
Output line: > 100 µM (inactive)

====

system: NCI/ADR-RES; experiment: NCI tumour cell line growth inhibition, 48 h
Calls of active or inactive are those of the source. Rule as the data show it: active = GI50 up to about 1.1 µM and inactive = higher.
Result category, one only: yes (1) (active), no (0) (inactive)

Input line: Check the results log: what was the call for COc1ccc(CC2C(=O)NC(C)C(=O)N(C)C3C(=O)N(C)C(Cc4ccc(O)c(c4)Oc4ccc(cc4)C3O)C(=O)NC(C)C(=O)NC(C)C(=O)N2C)cc1.COc1ccc(CC2C(=O)NC(C)C(=O)N(C)C3Cc4ccc(cc4)Oc4cc(ccc4O)CC(C(=O)NC(C)C(=O)NC(C)C(=O)N2C)N(C)C3=O)cc1 (stereo unspecified) ?
Output line: no (0)

Input line: Check the results log: what was the call for CCN(CC)c1ccc2cc(-c3nnc(-c4ccccc4)o3)c(=O)oc2c1 ?
Output line: no (0)

Input line: Check the results log: what was the call for CO[C@@H](c1ccccc1)[C@H](O)[C@](O)(c1ccccc1)P(=O)(OC)OC ?
Output line: no (0)

Input line: Check the results log: what was the call for C=C(C)C(=O)O[C@H]1CC2=CC(CC(C)=C[C@H]3OC(=O)C(=C)C13)OC2=O (stereo partly specified) ?
Output line: no (0)

Input line: Check the results log: what was the call for COc1cc(I)c2c3c1OC1C34CCN(C)C(C2)C4=CC(I)C1(OC)OC (stereo unspecified) ?
Output line: no (0)

Input line: Check the results log: what was the call for COC(=O)c1cc2c3c(cc(N(C)C)c2[nH]1)N(C(=O)c1cc2cc(OC)c(OC)c(OC)c2[nH]1)CC3CCl (stereo unspecified) ?
Output line: yes (1)

Input line: Check the results log: what was the call for c1ccc(-c2c(-c3[nH]c4ccccc4c3-c3ccccc3)[nH]c3ccccc23)cc1 ?
Output line: no (0)

Input line: Check the results log: what was the call for Nc1ccc(S(=O)(=O)Nc2nccs2)cc1 ?
Output line: no (0)

Input line: Check the results log: what was the call for Cc1cccc2nc3c(=O)[nH]c(=O)nc-3n(C)c12 ?
Output line: no (0)

Input line: Check the results log: what was the call for c1cn(C23C4C5C6C4C2C6C53)cn1 (stereo unspecified) ?
Output line: no (0)

Input line: Check the results log: what was the call for COc1cc2c(cc1OC)-c1c3c(cc4c1[C@@H](C2)N(C)CC4)OCO3 ?
Output line: no (0)

Input line: Check the results log: what was the call for COc1ccc(/C=C2\CC3C4CC=C5C[C@@H](O)CC[C@]5(C)C4CC[C@]3(C)C2=O)cc1OC (stereo partly specified) ?
Output line: no (0)

Input line: Check the results log: what was the call for COc1ccc(Cc2cc(OC)c(OC)c(OC)c2)cc1O ?
Output line: yes (1)

Input line: Check the results log: what was the call for N#CCCN(CCC#N)c1ccc(/C=C2\N=C(c3ccccc3)N(c3ccc(F)cc3)C2=O)cc1 ?
Output line: no (0)

Input line: Check the results log: what was the call for CC(C)=CC(O)C(C(O)CCC1(C)OCCO1)S(=O)(=O)c1ccccc1 (stereo unspecified) ?
Output line: no (0)

Input line: Check the results log: what was the call for Cc1nc(OCc2ccccc2)c2ncn(CCO)c2n1 ?
Output line: no (0)

====

So I've got a bunch of compounds here, and I need their GI50 values.
test system: HCC 2998; test: NCI tumour cell line growth inhibition, 48 h
Activity calls are given as the source filed them. Cut-off read from the data, not from the text of the source: active = GI50 up to about 1.1 µM and inactive = higher.

Input line: // GI50 lookup, key: CC(=O)c1cc2sc3ccccc3c2[nH]1
Output line: > 100 µM (inactive)

Input line: // GI50 lookup, key: Fc1ccc(C(OCCN2CCN(CCCc3ccccc3)CC2)c2ccc(F)cc2)cc1
Output line: 3.79 µM (inactive)

Input line: // GI50 lookup, key: C=C1CC[C@](C)(O)[C@@]2(C)CC[C@H]3C(=C(C)C)C(=O)C[C@]3(C)C[C@H]12
Output line: 23 µM (inactive)

Input line: // GI50 lookup, key: CNC(=O)OCc1nc(SC(C)C)n(C)c1COC(=O)NC
Output line: > 100 µM (inactive)

Input line: // GI50 lookup, key: CC1CCCC(C(O)CC2CC(=O)N(c3ccccc3)C(=O)C2)C1=O (stereo not given)
Output line: > 100 µM (inactive)

Input line: // GI50 lookup, key: COc1ccc(/C=C2/SC(c3ccccc3)N(NC(=O)CCCCCCCCC(=O)NN3C(=O)/C(=C\c4ccc(OC)c(OC)c4)SC3c3ccccc3)C2=O)cc1OC (stereo not given)
Output line: > 100 µM (inactive)

Input line: // GI50 lookup, key: CC(=O)OC1/C(=C/c2ccc([N+](=O)[O-])cc2)C[C@H]2[C@@H]3CC=C4C[C@@H](OC(C)=O)CC[C@]4(C)[C@H]3CC[C@]12C (stereo not given in full)
Output line: > 100 µM (inactive)

Input line: // GI50 lookup, key: CC1=C(CC2C(=O)N(c3ccccc3)S(=O)(=O)NC2C)C(=O)N(c2ccccc2)S(=O)(=O)N1C (stereo not given)
Output line: > 100 µM (inactive)

Input line: // GI50 lookup, key: [N-]=[N+]=NC(CI)c1cn([C@H]2C[C@H](O)[C@@H](CO)O2)c(=O)[nH]c1=O (stereo not given in full)
Output line: 85.1 µM (inactive)

Input line: // GI50 lookup, key: COC(=O)C1(OC(=O)Sc2ccccc2)CCN(C)CC1
Output line: 28.6 µM (inactive)

Input line: // GI50 lookup, key: C/C(=N\NC(=O)c1ccncc1)c1sc(-n2nc(-c3ccccc3)cc2-c2ccccc2)nc1C
Output line: > 31.6 µM (inactive)

Input line: // GI50 lookup, key: CC1(C)CC(=O)C(=CN2C(=O)CNC2=S)C(=O)C1
Output line: > 100 µM (inactive)

Input line: // GI50 lookup, key: O=C(OCC(Cl)(Cl)Cl)O[C@@H]1CCCC1(c1ccccc1)c1ccccc1
Output line: 45.4 µM (inactive)

Input line: // GI50 lookup, key: C=CCCCCC1CCC2CCC(CCCCC=C)N12 (stereo not given)
Output line: 16.1 µM (inactive)

Input line: // GI50 lookup, key: CNC(=O)CNC(=O)N(C[C@@H]1CCCN1C(=O)[C@H](CC(C)C)NC(=O)OC(C)(C)C)C(C)C
Output line: > 100 µM (inactive)
